Each record here notes measured Max Inhibition (%), NFκB-luciferase, 300 pM hIL-36γ.
Target: T1, Macaca fascicularis IL-36R on cells (Macaca fascicularis, UniProt A0A2K5WSK9 20-558)
T1 sequence: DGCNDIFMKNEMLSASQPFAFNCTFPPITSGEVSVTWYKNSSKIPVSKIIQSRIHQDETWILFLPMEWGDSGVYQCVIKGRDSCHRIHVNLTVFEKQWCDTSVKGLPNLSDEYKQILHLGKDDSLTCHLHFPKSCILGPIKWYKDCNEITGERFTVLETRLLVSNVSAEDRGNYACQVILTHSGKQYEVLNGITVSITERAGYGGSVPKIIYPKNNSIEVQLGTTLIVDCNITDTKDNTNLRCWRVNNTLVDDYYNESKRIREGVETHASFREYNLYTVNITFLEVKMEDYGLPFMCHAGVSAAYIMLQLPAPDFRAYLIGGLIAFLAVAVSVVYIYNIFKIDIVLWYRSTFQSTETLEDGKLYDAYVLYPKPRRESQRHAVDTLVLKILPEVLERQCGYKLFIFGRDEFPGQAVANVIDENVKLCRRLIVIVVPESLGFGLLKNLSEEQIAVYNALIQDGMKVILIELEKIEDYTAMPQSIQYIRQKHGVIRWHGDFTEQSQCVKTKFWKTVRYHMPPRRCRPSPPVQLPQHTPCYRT
Experiment: cell-based or functional assay
Quick note: give the figure in %, leave out the unit.

Would you please look over these solved cases?
# BINDER, QUANTITATIVE RESULT
data = [
    ("H4H14728P (antibody, human IgG4 S228P, kappa, V domains shown) VH: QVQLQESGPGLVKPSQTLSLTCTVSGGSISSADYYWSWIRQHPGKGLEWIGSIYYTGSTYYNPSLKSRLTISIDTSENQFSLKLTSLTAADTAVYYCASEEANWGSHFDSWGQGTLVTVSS VL: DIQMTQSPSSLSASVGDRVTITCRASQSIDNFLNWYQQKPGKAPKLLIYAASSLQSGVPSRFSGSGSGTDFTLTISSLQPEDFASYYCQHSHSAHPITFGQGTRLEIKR", 93),
    ("H4H14731P (antibody, human IgG4 S228P, kappa, V domains shown) VH: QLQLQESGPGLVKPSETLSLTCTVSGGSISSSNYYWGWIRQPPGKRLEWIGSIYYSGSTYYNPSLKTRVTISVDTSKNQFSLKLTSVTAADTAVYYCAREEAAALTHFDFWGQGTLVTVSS VL: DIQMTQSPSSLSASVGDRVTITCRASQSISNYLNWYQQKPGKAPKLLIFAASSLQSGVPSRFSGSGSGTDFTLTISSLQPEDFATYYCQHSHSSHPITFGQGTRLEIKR", 75),
]

Attention now turns to another entry.
# query: Max Inhibition (%), NFκB-luciferase, 300 pM hIL-36γ of entry H4H14699P2 (antibody, human IgG4 S228P, kappa, V domains shown, Fully human anti-IL-36R antibody) VH: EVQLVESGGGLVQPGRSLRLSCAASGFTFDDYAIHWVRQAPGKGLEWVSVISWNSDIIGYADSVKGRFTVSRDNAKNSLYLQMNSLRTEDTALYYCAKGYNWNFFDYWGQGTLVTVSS VL: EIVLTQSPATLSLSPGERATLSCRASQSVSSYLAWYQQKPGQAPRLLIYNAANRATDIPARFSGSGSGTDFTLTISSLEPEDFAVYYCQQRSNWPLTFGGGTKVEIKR
97
